Reference for the values: patent US20250313635A1

target: T1, mouse αvβ6 integrin on CHOK1 stable cells (mouse, UniProt P43406 31-1044; Q9Z0T9 22-787); experiment: cell-based ELISA (CELISA), CHOK1 cells expressing the integrin
T1 construct: whole, on cells; Stably expressed on CHOK1 cells; also called mαvβ6; CHOK1-mouse αvβ6
T1 sequence (P43406 31-1044, chain 1 of 2): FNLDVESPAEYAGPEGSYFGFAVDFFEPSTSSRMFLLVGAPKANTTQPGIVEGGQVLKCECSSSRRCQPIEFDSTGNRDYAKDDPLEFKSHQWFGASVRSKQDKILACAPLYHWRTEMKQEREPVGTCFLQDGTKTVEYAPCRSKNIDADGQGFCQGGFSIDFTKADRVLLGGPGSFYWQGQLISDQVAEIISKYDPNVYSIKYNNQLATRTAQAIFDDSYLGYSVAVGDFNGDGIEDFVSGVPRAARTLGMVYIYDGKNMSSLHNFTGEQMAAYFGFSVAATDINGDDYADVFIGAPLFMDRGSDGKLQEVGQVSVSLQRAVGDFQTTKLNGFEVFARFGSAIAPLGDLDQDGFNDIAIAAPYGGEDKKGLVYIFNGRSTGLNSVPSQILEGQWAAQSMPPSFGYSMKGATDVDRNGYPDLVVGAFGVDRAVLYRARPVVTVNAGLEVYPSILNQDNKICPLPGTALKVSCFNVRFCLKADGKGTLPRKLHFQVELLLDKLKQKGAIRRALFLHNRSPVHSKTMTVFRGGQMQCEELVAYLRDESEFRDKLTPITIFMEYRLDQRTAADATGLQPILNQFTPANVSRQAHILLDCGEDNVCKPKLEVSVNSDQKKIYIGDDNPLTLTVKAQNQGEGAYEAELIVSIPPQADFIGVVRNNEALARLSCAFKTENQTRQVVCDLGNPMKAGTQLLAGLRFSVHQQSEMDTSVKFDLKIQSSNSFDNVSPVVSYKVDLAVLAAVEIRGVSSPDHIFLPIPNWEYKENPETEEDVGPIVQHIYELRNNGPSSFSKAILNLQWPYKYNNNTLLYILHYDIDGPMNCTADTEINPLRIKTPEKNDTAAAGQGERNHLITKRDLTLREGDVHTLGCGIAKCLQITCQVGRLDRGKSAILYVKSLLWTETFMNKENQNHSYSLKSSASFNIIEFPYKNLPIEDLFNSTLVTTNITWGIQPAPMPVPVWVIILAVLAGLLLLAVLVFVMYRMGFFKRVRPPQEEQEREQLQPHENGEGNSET
T1 sequence (Q9Z0T9 22-787, chain 2 of 2): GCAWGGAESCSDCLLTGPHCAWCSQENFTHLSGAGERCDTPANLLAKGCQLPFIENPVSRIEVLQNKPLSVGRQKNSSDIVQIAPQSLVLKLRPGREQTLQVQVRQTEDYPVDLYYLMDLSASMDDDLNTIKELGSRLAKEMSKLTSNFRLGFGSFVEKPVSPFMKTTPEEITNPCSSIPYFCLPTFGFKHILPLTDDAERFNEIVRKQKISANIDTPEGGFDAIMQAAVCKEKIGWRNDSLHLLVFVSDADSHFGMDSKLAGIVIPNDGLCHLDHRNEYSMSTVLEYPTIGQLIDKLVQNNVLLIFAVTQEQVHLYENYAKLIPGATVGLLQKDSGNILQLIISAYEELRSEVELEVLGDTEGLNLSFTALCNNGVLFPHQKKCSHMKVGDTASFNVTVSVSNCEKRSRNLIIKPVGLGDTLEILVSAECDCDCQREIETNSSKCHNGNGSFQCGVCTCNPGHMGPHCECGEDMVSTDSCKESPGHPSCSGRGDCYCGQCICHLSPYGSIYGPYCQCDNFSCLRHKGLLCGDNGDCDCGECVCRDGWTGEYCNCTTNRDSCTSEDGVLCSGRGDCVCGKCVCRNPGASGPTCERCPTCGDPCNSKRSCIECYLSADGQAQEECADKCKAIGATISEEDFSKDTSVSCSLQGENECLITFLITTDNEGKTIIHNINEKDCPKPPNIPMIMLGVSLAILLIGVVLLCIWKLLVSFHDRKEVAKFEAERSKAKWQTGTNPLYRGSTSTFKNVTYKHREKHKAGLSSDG
Consider the following binders; for each one, report its pEC50.
Numbers only, as −log10 of the molar value.

Recorded results for 3 binders are shown here.
Ab-33 (antibody, V domains shown) VH: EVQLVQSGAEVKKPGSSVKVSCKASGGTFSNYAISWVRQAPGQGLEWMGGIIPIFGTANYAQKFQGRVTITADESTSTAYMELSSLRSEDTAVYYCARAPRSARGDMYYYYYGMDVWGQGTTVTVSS VL: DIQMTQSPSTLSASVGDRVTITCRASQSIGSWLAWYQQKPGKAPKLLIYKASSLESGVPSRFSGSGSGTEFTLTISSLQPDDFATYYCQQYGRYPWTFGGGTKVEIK ... 8.55
Ab-29 (antibody, V domains shown) VH: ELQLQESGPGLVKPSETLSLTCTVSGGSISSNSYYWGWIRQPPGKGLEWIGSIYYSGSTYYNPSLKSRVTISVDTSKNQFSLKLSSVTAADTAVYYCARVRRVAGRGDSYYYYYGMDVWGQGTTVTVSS VL: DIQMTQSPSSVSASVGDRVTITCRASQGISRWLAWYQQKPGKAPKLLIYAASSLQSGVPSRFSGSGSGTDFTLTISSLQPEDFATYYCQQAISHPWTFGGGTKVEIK ... 9.55
Ab-30 (antibody, V domains shown) VH: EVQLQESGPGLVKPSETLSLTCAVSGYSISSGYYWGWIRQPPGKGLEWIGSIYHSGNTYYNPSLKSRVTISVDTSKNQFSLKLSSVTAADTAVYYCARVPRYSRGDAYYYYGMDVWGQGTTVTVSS VL: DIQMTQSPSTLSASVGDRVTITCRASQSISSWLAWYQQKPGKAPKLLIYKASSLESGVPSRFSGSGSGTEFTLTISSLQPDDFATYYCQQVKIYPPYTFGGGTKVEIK ... 9.47

Next binder, please.
The binder identified as Ab-32 (antibody, V domains shown) VH: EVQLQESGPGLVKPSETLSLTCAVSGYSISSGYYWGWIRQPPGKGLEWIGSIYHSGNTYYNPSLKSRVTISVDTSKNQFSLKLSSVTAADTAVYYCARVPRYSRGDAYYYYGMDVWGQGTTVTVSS VL: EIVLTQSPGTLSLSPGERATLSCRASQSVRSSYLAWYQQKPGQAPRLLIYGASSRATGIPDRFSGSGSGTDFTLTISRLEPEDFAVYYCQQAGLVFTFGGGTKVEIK registered its pEC50 at 9.29
